tested target: Egl nine homolog 1 (Homo sapiens, UniProt Q9GZT9)
Sequence (Q9GZT9 whole entry, the tested form may be a part): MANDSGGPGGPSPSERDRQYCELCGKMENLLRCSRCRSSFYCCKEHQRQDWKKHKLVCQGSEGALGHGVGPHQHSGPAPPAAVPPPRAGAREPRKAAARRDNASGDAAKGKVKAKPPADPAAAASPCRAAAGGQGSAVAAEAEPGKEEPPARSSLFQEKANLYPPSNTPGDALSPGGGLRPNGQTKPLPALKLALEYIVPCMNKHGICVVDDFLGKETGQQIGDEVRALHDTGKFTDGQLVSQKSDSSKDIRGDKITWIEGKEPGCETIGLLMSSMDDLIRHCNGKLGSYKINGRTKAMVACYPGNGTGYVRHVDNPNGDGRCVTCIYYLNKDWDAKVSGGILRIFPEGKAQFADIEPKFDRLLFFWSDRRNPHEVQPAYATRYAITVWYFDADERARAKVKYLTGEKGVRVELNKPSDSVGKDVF
assay details: Inhibition Assay: The IC50 values for the PHD2 enzyme (residues 181-417) were determined by mixing increasing amounts of inhibitor with a fixed amount of enzyme (5 nM, final concentration) and Biotin labeled peptide (Biotin-Asp-Leu-Glu-Met-Leu-Ala-Pro-Tyr-Ile-Pro-Met-Asp-Asp-Asp-Phe-Gln-Leu, 1 uM final concentration) and 2-Oxyglutarate (2 uM final concentration) in 50 mM HEPES, 50 mM KCl, 0.5 mM TCEP, 2 uM FeCl2, 0.1 mg/ml BSA, at pH 7.3. The reaction was conducted by pre-incubating the enzyme in the presence of inhibitor for 60 min at room temperature. The activity of the free enzyme was measured by adding the peptide, the 2-Oxoglutarate (see above for final concentrations), and Ascorbic Acid (1 mM final concentration). The enzymatic activity was quenched after 60 min by adding an excess of a tight binding inhibitor to the assay mixture. The amount of product released was measured by using a LC/MS system (Agilent HPLC with Applied Biosystems API3000 Mass Spectrometer).
Entry class follows IC50: I = under 60 nM, II = from 60 nM up to 100 nM, III = 100 nM and over

Some solved entries appear below for comparison.
Class? Entry: "COc1cc(-c2cnn(-c3ccc(C(=O)NCCCN4CCCCC4)cn3)c2O)ccn1" II

Class? Entry: COc1cc(C#N)ccc1-c1cnn(-c2ccc(C(=O)NCCC3CCCO3)cn2)c1O (stereo unspecified) II

Class? Entry: COc1cc(-c2cnn(-c3ccc(C(=O)NCCC4CCCN4C)cn3)c2O)ccn1 (stereo unspecified) III

Next:
Class? Entry: "COc1cc(-c2cnn(-c3ccc(C(=O)NCCCn4ccnc4)cn3)c2O)ccn1" I

Class? Entry: CCN1CCC(CN(C)C(=O)c2ccc(-n3ncc(-c4ccc(C#N)cc4)c3O)nc2)C1 (stereo unspecified) I

Class? Entry: CN1CCC(NC(=O)c2ccc(-n3ncc(-c4ccc(C#N)cc4)c3O)nc2)CC1=O (stereo unspecified) III

* * *

Provide the recorded IC50 for the entries that follow.
tested target: Egl nine homolog 1 (Homo sapiens, UniProt Q9GZT9)
assay details: Inhibition Assay: The IC50 values for the PHD2 enzyme (residues 181-417) were determined by mixing increasing amounts of inhibitor with a fixed amount of enzyme (5 nM, final concentration) and Biotin labeled peptide (Biotin-Asp-Leu-Glu-Met-Leu-Ala-Pro-Tyr-Ile-Pro-Met-Asp-Asp-Asp-Phe-Gln-Leu, 1 uM final concentration) and 2-Oxyglutarate (2 uM final concentration) in 50 mM HEPES, 50 mM KCl, 0.5 mM TCEP, 2 uM FeCl2, 0.1 mg/ml BSA, at pH 7.3. The reaction was conducted by pre-incubating the enzyme in the presence of inhibitor for 60 min at room temperature. The activity of the free enzyme was measured by adding the peptide, the 2-Oxoglutarate (see above for final concentrations), and Ascorbic Acid (1 mM final concentration). The enzymatic activity was quenched after 60 min by adding an excess of a tight binding inhibitor to the assay mixture. The amount of product released was measured by using a LC/MS system (Agilent HPLC with Applied Biosystems API3000 Mass Spectrometer).
Give bare numbers, in nM.

Example cases with answers are listed next.
Which IC50 reading was recorded for the compound "COCCNC(=O)c1cnc(-n2ncc(-c3ccc(C#N)cc3)c2O)cc1C" ? 97.7

Which IC50 reading was recorded for the compound "CCN1CCC(NC(=O)c2ccc(-n3ncc(-c4ccnc(OC)c4)c3O)nc2)CC1" ? 77.6

Which IC50 reading was recorded for the compound "COc1cc(-c2cnn(-c3ccc(C(=O)NCCCN4CCCC4)cn3)c2O)ccn1" ? 97.7

Which IC50 reading was recorded for the compound "CC(C)(C)NC(=O)c1ccc(-n2ncc(-c3cccnc3)c2O)nc1" ? 10

Next:
Which IC50 reading was recorded for the compound "COc1cc(-c2cnn(-c3ccc(C(=O)NCCCN4CCCC4=O)cn3)c2O)ccn1" ? 51.3
